Molecular target: CDK5/CDK5R1 (Homo sapiens)
Sequence (Q00535 whole entry): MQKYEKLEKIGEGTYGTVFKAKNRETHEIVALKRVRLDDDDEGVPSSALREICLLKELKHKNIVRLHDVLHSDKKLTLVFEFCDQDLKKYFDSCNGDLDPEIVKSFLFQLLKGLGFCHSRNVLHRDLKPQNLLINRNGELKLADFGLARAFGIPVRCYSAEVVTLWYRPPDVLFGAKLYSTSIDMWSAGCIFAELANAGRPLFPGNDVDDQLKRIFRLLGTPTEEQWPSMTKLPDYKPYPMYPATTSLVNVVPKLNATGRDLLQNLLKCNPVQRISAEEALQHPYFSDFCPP
Sequence (Q15078 whole entry partner): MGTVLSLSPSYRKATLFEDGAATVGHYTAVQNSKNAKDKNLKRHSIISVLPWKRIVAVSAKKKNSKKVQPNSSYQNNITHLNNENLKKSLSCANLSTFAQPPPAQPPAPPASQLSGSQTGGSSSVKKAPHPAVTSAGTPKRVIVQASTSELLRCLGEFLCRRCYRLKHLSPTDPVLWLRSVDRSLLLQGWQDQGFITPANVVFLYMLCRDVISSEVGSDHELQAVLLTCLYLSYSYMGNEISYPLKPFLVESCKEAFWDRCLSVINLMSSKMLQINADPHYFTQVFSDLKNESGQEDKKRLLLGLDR
Test: NanoBRET live-cell target engagement, CDK5-NanoLuc/CDK5R1 in HEK-293
Assay type: binding
Details: 10µM; average of experiments; read-out: CDK5/CDK5R1 Inhibition at 10µM (%)
readoutLabel: inhibition at 10 µM (%)

smilesdata=CC(C)CC(=O)Nc1[nH]nc2c1CN(C(=O)C1CCN(C)CC1)C2(C)C assaytarget="CDK5/CDK5R1 (Homo sapiens)" readoutunit=% value=92

I. CN(C)C(=O)c1cc2cnc(Nc3ccc(N4CCNCC4)cn3)nc2n1C1CCCC1
II. CC(C)[C@H](CO)Nc1nc(Nc2ccc(C(=O)O)c(Cl)c2)c2ncn(C(C)C)c2n1
Which of the two gives a bigger number for inhibition at 10 µM: I or II ? # reply format: chosen label
II

* * *

Target: CDK6/Cyclin D1 (Homo sapiens)
Sequence (Q00534 whole entry): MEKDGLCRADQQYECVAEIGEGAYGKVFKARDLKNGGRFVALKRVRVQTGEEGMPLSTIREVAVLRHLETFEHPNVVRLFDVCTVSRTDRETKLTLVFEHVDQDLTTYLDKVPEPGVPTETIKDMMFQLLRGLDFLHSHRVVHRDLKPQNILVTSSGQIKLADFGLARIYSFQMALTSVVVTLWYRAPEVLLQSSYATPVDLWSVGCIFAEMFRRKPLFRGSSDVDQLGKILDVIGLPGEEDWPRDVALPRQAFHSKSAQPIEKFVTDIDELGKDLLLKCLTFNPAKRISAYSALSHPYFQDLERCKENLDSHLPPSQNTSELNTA
Sequence (P24385 whole entry partner): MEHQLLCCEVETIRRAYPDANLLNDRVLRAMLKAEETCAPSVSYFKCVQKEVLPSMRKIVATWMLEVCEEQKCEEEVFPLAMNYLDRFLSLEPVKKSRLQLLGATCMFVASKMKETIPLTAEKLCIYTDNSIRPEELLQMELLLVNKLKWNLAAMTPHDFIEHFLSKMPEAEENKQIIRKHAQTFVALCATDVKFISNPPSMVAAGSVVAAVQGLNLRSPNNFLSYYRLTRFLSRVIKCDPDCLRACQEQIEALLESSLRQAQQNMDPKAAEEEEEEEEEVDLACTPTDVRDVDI
Assay: NanoBRET live-cell target engagement, NanoLuc-CDK6/Cyclin D1 in HEK-293
Assay type: binding
Details: CDK6/D1; experiment 3; read-out: IC50
readoutLabel: IC50 (nM)

Below are worked cases with known answers.
compound="CC(C)c1cnn2c(NCc3ccccc3-n3cccn3)nc(OC3CCCNC3)nc12 (stereo not shown)" assaytarget="CDK6/Cyclin D1 (Homo sapiens)" value=50
compound=CNC(=O)c1nn(C)c2c1C(C)(C)Cc1cnc(Nc3ccc(N4CCN(C)CC4)cc3)nc1-2 assaytarget="CDK6/Cyclin D1 (Homo sapiens)" value=144

I. CN1CCC(c2c(O)cc(O)c3c(=O)cc(-c4ccccc4Cl)oc23)C1CO (stereo not shown)
II. CN1CCN(c2ccc(Nc3ncc4cc(C#N)c(=O)n(C5CCCC5)c4n3)cc2)CC1
Of the pair I and II , name the member with the lesser recorded IC50. # reply format: chosen label
II

* * *

Biological target: CDK14/Cyclin Y (Homo sapiens, UniProt O94921)
Sequence (O94921 whole entry): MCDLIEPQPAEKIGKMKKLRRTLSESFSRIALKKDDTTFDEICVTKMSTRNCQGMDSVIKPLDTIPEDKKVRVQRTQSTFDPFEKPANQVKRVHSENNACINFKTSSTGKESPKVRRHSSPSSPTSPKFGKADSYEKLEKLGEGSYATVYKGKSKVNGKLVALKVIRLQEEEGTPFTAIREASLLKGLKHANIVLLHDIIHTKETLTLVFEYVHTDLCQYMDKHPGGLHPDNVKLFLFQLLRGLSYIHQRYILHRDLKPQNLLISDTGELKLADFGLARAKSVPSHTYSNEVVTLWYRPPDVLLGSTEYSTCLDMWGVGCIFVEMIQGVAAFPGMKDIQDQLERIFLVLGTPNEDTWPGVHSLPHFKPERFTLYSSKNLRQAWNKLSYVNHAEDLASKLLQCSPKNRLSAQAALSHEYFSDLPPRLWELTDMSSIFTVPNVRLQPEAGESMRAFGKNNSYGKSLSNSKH
Sequence (Q8ND76 whole entry partner): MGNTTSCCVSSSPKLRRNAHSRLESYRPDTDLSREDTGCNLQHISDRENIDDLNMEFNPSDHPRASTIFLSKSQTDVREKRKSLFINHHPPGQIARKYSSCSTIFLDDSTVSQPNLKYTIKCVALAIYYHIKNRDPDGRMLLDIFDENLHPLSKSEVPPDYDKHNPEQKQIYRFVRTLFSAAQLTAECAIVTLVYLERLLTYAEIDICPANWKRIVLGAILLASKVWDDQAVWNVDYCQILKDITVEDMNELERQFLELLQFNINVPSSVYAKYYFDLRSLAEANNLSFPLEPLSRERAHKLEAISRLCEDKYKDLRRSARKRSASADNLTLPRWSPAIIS
Test: NanoBRET live-cell target engagement, CDK14-NanoLuc/Cyclin Y in HEK-293
Type: binding
Settings: CDK14/Y; experiment 2; read-out: Inhibition at 10µM (%)
readoutLabel: inhibition at 10 µM (%)

smilesdata=CNC(=O)c1nn(C)c2c1C(C)(C)Cc1cnc(Nc3ccc(N4CCN(C)CC4)cc3)nc1-2 assaytarget="CDK14/Cyclin Y (Homo sapiens, UniProt O94921)" value=76.8

I. CN1CCN(c2ccc(Nc3ncc4cc(C#N)c(=O)n(C5CCCC5)c4n3)cc2)CC1
II. N#CCNC(=O)c1ccc(-c2ccnc(Nc3ccc(N4CCOCC4)cc3)n2)cc1
Which of the two gives a bigger number for inhibition at 10 µM: I or II ? # reply format: chosen label
I
(I: 34.4%, II: 17.7%)

* * *

Target: CDK11B/Cyclin L2 (Homo sapiens, UniProt P21127)
Sequence (P21127 1-782 isoform P21127-2): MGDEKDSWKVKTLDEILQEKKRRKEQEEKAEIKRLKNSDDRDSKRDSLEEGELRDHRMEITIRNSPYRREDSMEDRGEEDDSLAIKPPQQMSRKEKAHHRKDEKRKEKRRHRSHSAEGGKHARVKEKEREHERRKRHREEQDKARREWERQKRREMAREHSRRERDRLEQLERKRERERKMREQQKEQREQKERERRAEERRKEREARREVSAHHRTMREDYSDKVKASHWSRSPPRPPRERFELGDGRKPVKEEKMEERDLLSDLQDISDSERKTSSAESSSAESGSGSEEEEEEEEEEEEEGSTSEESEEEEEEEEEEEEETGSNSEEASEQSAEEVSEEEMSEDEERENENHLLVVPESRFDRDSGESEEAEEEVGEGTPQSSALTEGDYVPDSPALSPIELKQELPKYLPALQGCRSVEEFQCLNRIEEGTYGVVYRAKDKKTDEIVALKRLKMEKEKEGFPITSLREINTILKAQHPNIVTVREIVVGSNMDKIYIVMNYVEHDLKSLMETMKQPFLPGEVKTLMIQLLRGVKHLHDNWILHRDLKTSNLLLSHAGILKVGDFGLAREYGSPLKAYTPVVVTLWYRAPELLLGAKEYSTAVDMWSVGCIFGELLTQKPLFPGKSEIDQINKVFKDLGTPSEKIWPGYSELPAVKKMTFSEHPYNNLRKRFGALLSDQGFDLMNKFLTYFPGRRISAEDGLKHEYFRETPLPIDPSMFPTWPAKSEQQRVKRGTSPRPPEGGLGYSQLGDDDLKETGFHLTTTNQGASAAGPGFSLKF
Assay: NanoBRET live-cell target engagement, CDK11B-NanoLuc/Cyclin L2 in HEK-293
Assay type: binding
Settings: 10µM; average of experiments; read-out: CDK11b/L2 Inhibition at 10µM (%)
readoutLabel: inhibition at 10 µM (%)

Below are worked cases with known answers.
compound="CN(C)C(=O)c1cc2cnc(Nc3ccc(N4CCNCC4)cn3)nc2n1C1CCCC1 [Ribociclib]" readoutlabel="inhibition at 10 µM" readoutunit=% value=5
compound="CC(C)CC(=O)Nc1[nH]nc2c1CN(C(=O)C1CCN(C)CC1)C2(C)C [PHA-793887]" readoutlabel="inhibition at 10 µM" readoutunit=% value=56.3

a. CN1C/C=C/CCOc2cccc(c2)-c2ccnc(n2)Nc2cccc(c2)C1 [SB1317]
b. CC(C)[C@H](CO)Nc1nc(Nc2ccc(C(=O)O)c(Cl)c2)c2ncn(C(C)C)c2n1 [Purvalanol B]
Of the pair a and b , name the member with the lesser recorded inhibition at 10 µM. # reply format: chosen label
b

Source: paper PMC7265341
